# testedOn: T1, recombinant human CD3 epsilon/delta heterodimer (human, UniProt P07766 23-126; P04234 22-105)
# T1 construct: Recombinant heterodimer used as analyte in Octet; also called hCD3 E/D; human CD3E/D
# protocolNotes: BLI (Octet), mAb 5 ug/mL on FAB2G sensor, hCD3 E/D 200-50 nM
measureName: kon (M⁻¹ s⁻¹)

ABL-CD3-66 (antibody, V domains shown, mAb purified from hybridoma; chimeric AlivaMab IgG (human VH, CH1 and upper hinge; mouse middle hinge, CH2, CH3; human light chain)) VH: QVQLQESGPGLVKPSETLSLTCTVSGGSISSYYWSWIRQPAGKGLEWIGRIYASGSTYYNPSLKSRVTMSVDTSKNQFSLKLSSVTAADTAVYYCAREKRSRLYFDYWGQGTLVTVSS VL: NFMLTQPHSVSESPGKTVTISCTRSSGSIASNYVQWYQQRPGSSPTTVIYEDNQRPSGVPDRFSGSIDSSSNSASLTISGLKTEDEGDYYCQSYDRSNRVFGGGTKLTVL	341000
ABL-CD3-71 (antibody, V domains shown, mAb purified from hybridoma; chimeric AlivaMab IgG (human VH, CH1 and upper hinge; mouse middle hinge, CH2, CH3; human light chain)) VH: QVQLQESGPGLVKPSETLSLTCTVSGGSINSYYWSWIRQPAGKGLEWIGRIYTSGSTNYNPSLKSRVTMSVDTSKKQFSLKLSSVTAADTAVYYCARERISRLYFDYWGQGILVTVSS VL: NFMLTQPHSVSESPGKTVTISCTRSSGSIASNYVQWYQQRPGSSPTTVIYEDNQRPSGVPDRFSGSIDSSSNSASLTISGLKTEDEADYYCQSYDRSNRVFGGGTKLTVL	173000
ABL-CD3-86 (antibody, V domains shown, mAb purified from hybridoma; chimeric AlivaMab IgG (human VH, CH1 and upper hinge; mouse middle hinge, CH2, CH3; human light chain)) VH: EVQLVESGGGLVKPGGSLRLSCAASGFTFSRYSMNWVRQAPGKGLEWVSTISRSSRYIYYGDSVKGRFTISRDNAKNSLLLQMNSLRAEDTAVYYCARDHNWSFDYWGKGILVTVSS VL: NFMLTQPLSVSESPGKTLTISCTRNSGSIASNYVQWYRQRPGSSPTTVIYEDKQRPSGVPDRFSGSIDSSSNSASLTISGLKAEDEADYYCQSCDSSNVVFGGGTTLTVL	184000
